target.system: Chromo domain-containing protein 1 (Saccharomyces cerevisiae (strain ATCC 204508 / S288c) (Baker's yeast)) (UniProt P32657)
Sequence (P32657 whole entry, the tested form may be a part): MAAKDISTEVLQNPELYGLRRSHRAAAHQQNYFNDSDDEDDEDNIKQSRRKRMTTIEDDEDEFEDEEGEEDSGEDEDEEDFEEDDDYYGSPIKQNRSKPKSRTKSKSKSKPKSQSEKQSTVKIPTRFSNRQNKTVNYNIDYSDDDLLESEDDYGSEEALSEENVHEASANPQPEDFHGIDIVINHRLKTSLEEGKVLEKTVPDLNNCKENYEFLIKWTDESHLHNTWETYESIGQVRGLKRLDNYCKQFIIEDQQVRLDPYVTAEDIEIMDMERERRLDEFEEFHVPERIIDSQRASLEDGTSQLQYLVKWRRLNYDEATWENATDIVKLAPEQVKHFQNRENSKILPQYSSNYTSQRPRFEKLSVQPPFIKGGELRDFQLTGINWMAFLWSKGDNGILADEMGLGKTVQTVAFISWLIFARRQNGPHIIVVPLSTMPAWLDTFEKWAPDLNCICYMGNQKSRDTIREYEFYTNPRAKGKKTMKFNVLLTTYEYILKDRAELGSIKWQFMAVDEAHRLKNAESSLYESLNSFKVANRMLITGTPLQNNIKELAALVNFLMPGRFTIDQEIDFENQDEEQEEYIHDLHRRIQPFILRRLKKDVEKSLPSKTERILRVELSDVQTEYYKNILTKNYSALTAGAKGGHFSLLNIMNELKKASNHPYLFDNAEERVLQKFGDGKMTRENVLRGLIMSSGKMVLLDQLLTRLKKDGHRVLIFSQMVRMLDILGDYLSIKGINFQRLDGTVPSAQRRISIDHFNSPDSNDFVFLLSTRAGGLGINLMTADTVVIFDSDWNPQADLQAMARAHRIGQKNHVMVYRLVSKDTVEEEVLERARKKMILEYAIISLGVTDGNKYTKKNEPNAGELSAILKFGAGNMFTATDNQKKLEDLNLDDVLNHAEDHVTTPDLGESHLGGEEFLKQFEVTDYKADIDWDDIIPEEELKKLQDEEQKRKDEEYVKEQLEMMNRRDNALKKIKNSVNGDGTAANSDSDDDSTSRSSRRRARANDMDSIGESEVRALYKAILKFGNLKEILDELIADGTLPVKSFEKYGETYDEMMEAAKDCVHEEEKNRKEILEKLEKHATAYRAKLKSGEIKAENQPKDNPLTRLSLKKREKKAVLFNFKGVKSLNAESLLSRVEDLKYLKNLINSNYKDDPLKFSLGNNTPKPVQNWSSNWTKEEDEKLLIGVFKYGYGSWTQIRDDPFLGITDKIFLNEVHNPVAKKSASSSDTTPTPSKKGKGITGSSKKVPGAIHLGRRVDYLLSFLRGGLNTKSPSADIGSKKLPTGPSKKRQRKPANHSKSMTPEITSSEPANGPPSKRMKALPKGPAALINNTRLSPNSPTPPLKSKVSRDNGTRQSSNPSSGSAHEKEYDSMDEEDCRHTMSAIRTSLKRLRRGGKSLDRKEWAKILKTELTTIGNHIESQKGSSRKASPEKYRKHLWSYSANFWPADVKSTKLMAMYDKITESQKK
test.summary: ScCHD-1 Enzyme Inhibition Assay
Format: functional
Design: scale not given: in the data most compounds retested in dose-response had high values
measurement.conditions: 30 µM
Listed here: items and their measured Percent Effect.
measurement.kind: Percent Effect (%)

Cc1cccc(C(=O)N2CCC(Cc3cnc4[nH]ccc4c3)CC2)n1 = -24.1
CCc1noc(C(C)N2CCN(Cc3nnc(C4CC4)o3)CC2)n1 (stereo not drawn) = -5.5
CN(Cc1ccc(Cl)c(Cl)c1)C(=O)CNC(N)=O = -1.83
CCS(=O)(=O)N1CCc2ccc(NC(=O)Nc3cccc(SC)c3)cc21 = -5.8
COc1cc(C(=O)N2CCCS2(=O)=O)cc(Cl)c1OC = -12.8
Cn1cc(CNCCn2cccn2)c(-c2cccnc2)n1 = 2.43
CC(Oc1ccccc1C(F)(F)F)C(=O)NS(=O)(=O)C(C)C (stereo not drawn) = -6.88
CCc1cccc(N2CCC(NC(=O)c3cc[nH]n3)CC2)c1 = -20.9
CN(C)[C@@H]1CN(Cc2ccco2)C[C@@H]2CCCO[C@@H]21 = -3.13
COCCN1C[C@@H](C)[C@@]2(COCCN(C(=O)c3cnc(C)cn3)C2)C1 = -6.61
NCc1cn(-c2ccccc2C(=O)NCc2ccccc2)cn1 = -23.1
Cc1nnc(N2C[C@@H](OCCCn3cccn3)[C@H]3OCCC[C@H]32)s1 = -7.05
Cn1cc(CN2C[C@@H]3COC[C@]3(CNC(=O)c3ccsc3)C2)cn1 = -2.4
O=C(NCCc1csc(N2CCCC2)n1)N(C1CCCC1)C1CC1 = -6.87
c1cnnc(N2CCCC(NCc3ccc(-n4ccnc4)cc3)C2)c1 (stereo not drawn) = -13.3
CCCc1nc(C)c(C(=O)NS(=O)(=O)c2ccc(C#N)cc2)s1 = -9.01
Cc1cn2c(n1)CCC(NC(=O)c1cc(Br)cn1C)C2 (stereo not drawn) = -4.6
O=C(CSc1ccccn1)N1C[C@H]2CC[C@@H]1CN(Cc1cscn1)C2 = -3.86
CNc1nc(C)c(C(=O)N2CCCCC2CN2CCCCCC2)s1 (stereo not drawn) = -9.37
CCc1nnc2n1CCN(Cc1csc(-c3ccc(C)o3)n1)C2 = -6.08
Cc1[nH]ncc1C(=O)N1CCCC(n2cncn2)C1 (stereo not drawn) = -6.77
Cn1ccc2ccc(C(=O)N3CCN(C(=O)N4CCOCC4)CC3)cc21 = -1.13
CNC(=O)C1(c2cnccn2)CCCN1C(=O)c1ccn(C)n1 (stereo not drawn) = -22
COc1ccc(COCC(O)CNC(=O)c2cccnc2)cc1 (stereo not drawn) = -14.1
COCc1cncc2c1CCN(C(=O)c1ccc(C)o1)C2 = -6.41
CCOCC1CN(Cc2cnn(C)c2)Cc2nn(C)cc21 (stereo not drawn) = 2.52
CCC(=O)N1CCC(Cc2nccnc2Nc2ccccn2)CC1 = -20
Cc1cccc(CS(=O)(=O)NCC(O)Cc2ccccc2)c1 (stereo not drawn) = -5.28
CCn1cnnc1CNC(=O)N1CCC(C(=O)NC)CC1 = -6.68
Cc1cc(CN2CCN(CCOc3cccc(C#N)c3)CC2)no1 = -5.93
Cc1nnc(NC(=O)NC2CCOc3ccccc32)s1 (stereo not drawn) = 1.07
Cc1nn(C)c(C)c1C1COCCN1C(=O)Cc1cccc(F)c1 (stereo not drawn) = -4.69
O=C(CCC1CCN(Cc2ncc[nH]2)CC1)Nc1ccccc1Cl = 4.74
Cc1cc(CN2CCCC(C)(CO)C2)ccc1F (stereo not drawn) = -7.89
Nc1nc(CCC(=O)N2CCOC(CC3CCCCC3)C2)cs1 (stereo not drawn) = 5.38
c1csc(-c2nc(CNC3CCc4ncnn4C3)cs2)c1 (stereo not drawn) = 1.57
Cc1cc(CN(C)C(=O)NC2CCS(=O)(=O)C2)no1 (stereo not drawn) = -18.4
Cn1ccnc1CN1CCN(Cc2noc(-c3ccccc3)n2)CC1 = -9.67
Cc1nc(C)n(CC2CCCN2Cc2cn3c(C)cccc3n2)n1 (stereo not drawn) = -11.6
COCCc1noc(CN2CCCCC2Cn2cc(C)cn2)n1 (stereo not drawn) = -1.31
Cc1nc(N)cc(C2CN(C(=O)c3ccn(C)n3)CCO2)n1 (stereo not drawn) = -24.2
CCn1cnnc1C1CCN(C(=O)C(OC)c2ccccc2)CC1 (stereo not drawn) = -17.7
CCn1cc(CN2CCC(c3nnc(CN(C)C)n3CC)CC2)cn1 = 0.0159
Cc1cnc(CN2CCCC(c3cc(C(F)(F)F)[nH]n3)C2)cn1 (stereo not drawn) = -4.75
Cc1ccccc1OCCC(=O)N1CCCC(n2cncn2)C1 (stereo not drawn) = -3.4
C1CCCN(c2nc(C3CC3)ns2)CC1 = -3.08
CN(Cc1ccsc1)C(=O)Nc1ccc(S(C)(=O)=O)nc1 = -6.57
Cn1ncc(NCc2cccc(COC(C)(C)C)c2)c(Cl)c1=O = -8.54
